# Toxic level listing for each entry below
Experiment summary: Toxic level was determined
Format: ADME
Please respond with the number in mM and leave the unit unwritten.

Previously resolved entries follow.
Molecule	Unit annotation	Recorded number
Nc1nn(C2O[C@H](CO)[C@@H](O)[C@H]2O)c2nc[nH]c(=O)c12 (some centres undefined)	mM	5
O=c1[nH]cnc2c1c(Br)nn2C1O[C@H](CO)[C@@H](O)[C@H]1O (some centres undefined)	mM	5

Please report the recorded Toxic level for O=Nn1c(=O)c2c(O)ncnc2n1C1O[C@H](CO)[C@@H](O)[C@H]1O (some centres undefined) .
5

Please report the recorded Toxic level for NC(=S)c1nn(C2O[C@H](CO)[C@@H](O)[C@H]2O)c2nc[nH]c(=O)c12 (some centres undefined) .
5

Please report the recorded Toxic level for Nc1ncnc2c1c(Br)nn2C1O[C@H](CO)[C@@H](O)[C@H]1O (some centres undefined) .
0.5

Please report the recorded Toxic level for NC(=O)c1nn(C2O[C@H](CO)[C@@H](O)[C@H]2O)c2nc[nH]c(=O)c12 (some centres undefined) .
5
